- System: Mo-T (Other Blood Carcinomas);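 note: after 72 h of two-drug dosing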
- experiment.summary: Bliss excess, mean over the matrix (fraction); higher = more synergy
measurement.label: Bliss excess
Answer with a bare number; do not write a unit.

Q: Quick one: Bliss excess for Cc1c2c(nn1C)CSCc1cc(n(C)n1)CSc1cc(c3ccccc3c1)OCCCc1c(C(=O)O)n(C)c3c-2c(Cl)ccc13 [AZD5991] + CC(=O)O[C@H]1C(=O)[C@@]2(C)[C@H]([C@H](OC(=O)c3ccccc3)[C@]3(O)C[C@H](OC(=O)[C@H](O)[C@@H](NC(=O)c4ccccc4)c4ccccc4)C(C)=C1C3(C)C)[C@]1(OC(C)=O)CO[C@@H]1C[C@@H]2O [Paclitaxel] (first compound max 1 µM, 7x7, partner max 3 µM) ?
Ans: -0.0521

Q: If you can, please state the reported Bliss excess value of COc1cccc(OCCCN)c1-c1cc(Nc2cnc(C#N)cn2)n[nH]1 [Prexasertib] + Cc1cc2ncnn2cc1Nc1ncc2c(n1)n(C1CCOCC1)c(=O)n2C [AZD7648] (first compound max 1 µM, 7x7, partner max 10 µM) .
Ans: 0.0159

Q: // Bliss excess lookup, key: CN(CCO)CC[C@H](CSc1ccccc1)Nc1ccc(S(=O)(=O)NC(=O)c2ccc(N3CCC([C@@H](O)c4ccccc4-c4ccc(Cl)cc4)CC3)cc2)cc1S(=O)(=O)C(F)(F)F [AZD4320] + Cn1cnc2c(F)c(Nc3ccc(Br)cc3Cl)c(C(=O)NOCCO)cc21 [Selumetinib] (first compound max 1 µM, 7x7, partner max 3 µM)
Ans: 0.0434

Q: Recorded Bliss excess for Cc1c2c(nn1C)CSCc1cc(n(C)n1)CSc1cc(c3ccccc3c1)OCCCc1c(C(=O)O)n(C)c3c-2c(Cl)ccc13 [AZD5991] + C=CCn1c(=O)c2cnc(Nc3ccc(N4CCN(C)CC4)cc3)nc2n1-c1cccc(C(C)(C)O)n1 [AZD1775] (first compound max 1 µM, partner max 1 µM) , please?
Ans: 0.0127

Q: Please give the measured Bliss excess for this compound: CC1(C)CCC(CN2CCN(c3ccc(C(=O)NS(=O)(=O)c4ccc(NCC5CCOCC5)c([N+](=O)[O-])c4)c(Oc4cnc5[nH]ccc5c4)c3)CC2)=C(c2ccc(Cl)cc2)C1 [Venetoclax] + C1CN(CCC1(C(=O)N[C@@H](CCO)C2=CC=C(C=C2)Cl)N)C3=NC=NC4=C3C=CN4 [Capivasertib] (first compound max 1 µM, 7x7, partner max 3 µM)
Ans: -0.013

Q: Which Bliss excess is listed for Cc1cc2ncnn2cc1Nc1ncc2c(n1)n(C1CCOCC1)c(=O)n2C [AZD7648] + COc1cc([C@@H]2c3cc4c(cc3[C@@H](O[C@@H]3O[C@@H]5CO[C@@H](C)O[C@H]5[C@H](O)[C@H]3O)[C@H]3COC(=O)[C@H]23)OCO4)cc(OC)c1O [Etoposide] (first compound max 10 µM, 7x7, partner max 10 µM) ?
Ans: 0.0928

Q: Look up Bliss excess for this compound: NC1(C(=O)N[C@@H](CCO)c2ccc(Cl)cc2)CCN(c2ncnc3[nH]ccc23)CC1 [Capivasertib] + COc1nnc2ccc(N3CCC(c4ccc(OCCN5CCN(C)C(=O)[C@H]5C)cc4)CC3)nn12 [AZD5153] (first compound max 10 µM, 7x7, partner max 1 µM)
Ans: -0.0717

Q: Consider the compound C=CCn1c(=O)c2cnc(Nc3ccc(N4CCN(C)CC4)cc3)nc2n1-c1cccc(C(C)(C)O)n1 [AZD1775] + O=C(c1cc(Cc2n[nH]c(=O)c3ccccc23)ccc1F)N1CCN(C(=O)C2CC2)CC1 [Olaparib] (first compound max 1 µM, partner max 10 µM) and give its measured Bliss excess.
Ans: -0.0418

Q: Bliss excess lookup needed for CN(C)CCCOc1ccc(-c2ccc3ncc4c(c3c2)n(C2CCOCC2)c(=O)n4C)cn1 [AZD0156] + C[C@@H]1COCCN1C2=NC(=NC(=C2)C3(CC3)[S@](=N)(=O)C)C4=C5C=CNC5=NC=C4 [AZD6738] (first compound max 1 µM, 7x7, partner max 10 µM) , thanks.
Ans: -0.0382

Q: So what does the record say about Bliss excess for N#Cc1cnc(Nc2cc(NC[C@H]3CNCCO3)c(C(F)(F)F)cn2)cn1 [SRA737] + C=CCn1c(=O)c2cnc(Nc3ccc(N4CCN(C)CC4)cc3)nc2n1-c1cccc(C(C)(C)O)n1 [AZD1775] (first compound max 10 µM, partner max 1 µM) ?
Ans: -0.0097

Q: // lookup Bliss excess for CN(CCO)CC[C@H](CSc1ccccc1)Nc1ccc(S(=O)(=O)NC(=O)c2ccc(N3CCC([C@@H](O)c4ccccc4-c4ccc(Cl)cc4)CC3)cc2)cc1S(=O)(=O)C(F)(F)F [AZD4320] + CS(=O)(=O)CCNCc1ccc(-c2ccc3ncnc(Nc4ccc(OCc5cccc(F)c5)c(Cl)c4)c3c2)o1 [Lapatinib] (first compound max 1 µM, 7x7, partner max 10 µM)
Ans: 0.0485

Q: Request the reported Bliss excess associated with COc1nnc2ccc(N3CCC(c4ccc(OCCN5CCN(C)C(=O)[C@H]5C)cc4)CC3)nn12 [AZD5153] + CCN(CCO)CCCOc1ccc2c(Nc3cc(CC(=O)Nc4cccc(F)c4)[nH]n3)ncnc2c1 [AZD2811] (first compound max 1 µM, 7x7, partner max 1 µM)
Ans: 0.0014

Q: Name the reported Bliss excess value associated with the compound CS(=O)(=O)CCNCc1ccc(-c2ccc3ncnc(Nc4ccc(OCc5cccc(F)c5)c(Cl)c4)c3c2)o1 [Lapatinib] + Cn1cnc2c(F)c(Nc3ccc(Br)cc3Cl)c(C(=O)NOCCO)cc21 [Selumetinib] (first compound max 10 µM, 7x7, partner max 10 µM)
Ans: -0.0542
